# System: KRAS-mutant PDC multicell tumor spheroid viability;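 further: viability read after seven days of drug exposure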
# test: Anticancer human tumor 521955-158-R2-J5-PDC patient-derived pancreatic carcinoma cell line growth inhibition [KRAS2]
# assay-setup: second compound 1 µM; first compound 0.316 µM; hits give low values
With a cut-off of 60%, any viability, T/C strictly below it is called met; any viability, T/C meeting it or above is called not met.

Worked cases, answers included:
{"columns": ["compound", "discrete-label"],
 "data": [
  ["CC1(C)CCC(CN2CCN(c3ccc(C(=O)NS(=O)(=O)c4ccc(NCC5CCOCC5)c([N+](=O)[O-])c4)c(Oc4cnc5[nH]ccc5c4)c3)CC2)=C(c2ccc(Cl)cc2)C1 + C=CC(=O)N1CCN(c2nc(OCC3CCCN3C)nc3c2CCN(c2cccc4cccc(C)c24)C3)CC1CC#N", "not met"],
  ["CC1(C)CCC(CN2CCN(c3ccc(C(=O)NS(=O)(=O)c4ccc(NCC5CCOCC5)c([N+](=O)[O-])c4)c(Oc4cnc5[nH]ccc5c4)c3)CC2)=C(c2ccc(Cl)cc2)C1 + CC1OCC2(CCN(c3cnc(Sc4ccnc(N)c4Cl)c(N)n3)CC2)C1N", "met"],
  ["CC1COCCN1c1cc(-c2ccnn2C)c2ccnc(-c3ccn[nH]3)c2n1 (stereo not given) + CC1OCC2(CCN(c3cnc(Sc4ccnc(N)c4Cl)c(N)n3)CC2)C1N", "met"],
  ["CCN1CCN(Cc2ccc(Nc3ncc(F)c(-c4cc(F)c5nc(C)n(C(C)C)c5c4)n3)nc2)CC1 + CC1OCC2(CCN(c3cnc(Sc4ccnc(N)c4Cl)c(N)n3)CC2)C1N", "not met"],
  ["CC1COCCN1c1cc(-c2ccnn2C)c2ccnc(-c3ccn[nH]3)c2n1 (stereo not given) + COc1cc2nc(C)nc(NC(C)c3cc(N)cc(C(F)(F)F)c3)c2cc1OC1CCOC1", "met"]
]}

Exercise: Hi there! Is viability, T/C for CCN1CCN(Cc2ccc(Nc3ncc(F)c(-c4cc(F)c5nc(C)n(C(C)C)c5c4)n3)nc2)CC1 + COc1cc2nc(C)nc(NC(C)c3cc(N)cc(C(F)(F)F)c3)c2cc1OC1CCOC1 below 60%, do you know?
Solution: not met

Exercise: I wonder whether CC(=O)OC12COC1CC(O)C1(C)C(=O)C(O)C3=C(C)C(OC(=O)C(O)C(NC(=O)OC(C)(C)C)c4ccccc4)CC(O)(C(OC(=O)c4ccccc4)C21)C3(C)C (stereo not given) + CNCc1ccccc1-c1csc(C(C)Nc2nc(C)nc3cc(OC)c(OC)cc23)c1 has viability, T/C below 60%. Can you tell?
Solution: met

Exercise: Identify whether the compound CC(=O)OC12COC1CC(O)C1(C)C(=O)C(O)C3=C(C)C(OC(=O)C(O)C(NC(=O)OC(C)(C)C)c4ccccc4)CC(O)(C(OC(=O)c4ccccc4)C21)C3(C)C (stereo not given) + C=CC(=O)N1CCN(c2nc(=O)n(-c3c(C)ccnc3C(C)C)c3nc(-c4c(O)cccc4F)c(F)cc23)C(C)C1 records viability, T/C below 60%.
Solution: met
